pIC50 for assorted compounds
# Tested System: BRD4 (Homo sapiens, UniProt O60885)
# Procedure Details: Time Resolved Fluorescence Resonance Energy Transfer (TR-FRET) binding assay, BRD4
# Condition Info: one of the FRET assays described; read-out: FRET BRD4 IC50
pIC50: −log10 of the molar value.

Compound	pIC50
Cc1nnn(C)c1-c1cnc2c3cc(CCC(C)(C)O)ccc3n([C@H](c3ccccc3)C3CCOCC3)c2c1	> 8.30
Cc1nnn(C)c1-c1cnc2c3ccc(C(C)(C)O)cc3n(C(c3cccc(Cl)c3)C3CCOCC3)c2c1 (single isomer, unassigned) [Example 400]	> 8.30
Cn1nnc(CF)c1-c1cnc2c3ccc(S(C)(=O)=O)cc3n([C@H](c3ccccc3)C3CCOCC3)c2c1	> 8.30
COc1cnccc1C(C1CCOCC1)n1c2cc(C(C)(C)O)ccc2c2ncc(-c3c(C)nnn3C)cc21 (stereo not shown)	> 8.30
Cc1nnn(C)c1-c1cnc2c3ccc(C(C)(C)O)cc3n([C@@H](c3ccccc3F)C3CCOCC3)c2c1	> 8.30
[2H]C([2H])(O)c1ccc2c3ncc(-c4c(C)nnn4C)cc3n([C@H](c3ccccc3)C3CCOCC3)c2c1	> 8.30
COc1ccc(C(C2CCOCC2)n2c3cc(C(C)(C)O)ccc3c3ncc(-c4c(C)nnn4C)cc32)c(F)c1 (single isomer, unassigned) [Example 120]	> 8.30
Cc1nnn(C)c1-c1cnc2c3c(S(C)(=O)=O)cccc3n(C(c3c(F)cc(F)cc3F)C3CCOCC3)c2c1 (single isomer, unassigned) [Example 117]	> 8.30
Cc1noc(C)c1-c1cnc2c3ccc(C(C)(C)O)cc3n([C@H](CCC(F)(F)F)c3ccccc3C(F)(F)F)c2c1	> 5.82
COc1cc(F)c(C(C2CCOCC2)n2c3cc(C(C)(C)O)ccc3c3ncc(-c4c(C)nnn4C)cc32)cc1F (single isomer, unassigned) [Example 124]	> 8.30
Cc1noc(C)c1-c1cnc2c3ccc(C(C)(C)O)cc3n(CC3CCOCC3)c2c1	> 7.60
Cc1nnn(C)c1-c1cnc2c3ccc(CS(C)(=O)=O)cc3n([C@H](c3ncccc3F)C3CCOCC3)c2c1	> 8.30
Cc1nnn(C)c1-c1cnc2c3ccc(C(C)(C)O)cc3n(C(c3ccc(Cl)cc3)C3CCOCC3)c2c1 (single isomer, unassigned) [Example 399]	> 8.30
